- Test target: FGFR2 (Homo sapiens, UniProt P21802)
- Construct: biochemical assays using purified intracellular domains of the respective isoforms; purchased Carna Bioscience 08-134
- Sequence (P21802 399-821 limits assumed): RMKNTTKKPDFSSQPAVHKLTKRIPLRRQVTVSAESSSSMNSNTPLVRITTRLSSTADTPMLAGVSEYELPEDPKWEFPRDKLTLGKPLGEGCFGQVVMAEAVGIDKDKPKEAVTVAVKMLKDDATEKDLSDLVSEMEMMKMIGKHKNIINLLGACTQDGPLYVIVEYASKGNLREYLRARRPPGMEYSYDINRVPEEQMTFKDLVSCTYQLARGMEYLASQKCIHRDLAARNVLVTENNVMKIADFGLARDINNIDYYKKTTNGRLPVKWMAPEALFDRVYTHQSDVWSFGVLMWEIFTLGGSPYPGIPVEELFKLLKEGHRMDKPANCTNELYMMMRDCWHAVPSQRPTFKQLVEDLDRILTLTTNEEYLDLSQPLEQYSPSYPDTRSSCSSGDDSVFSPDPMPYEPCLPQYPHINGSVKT
- Assay info: FGFR wild type enzyme assay (HTRF KinEASE-TK)
- Assay type: biochemical
- Test parameters: Table 3; ATP 2 uM; read-out: FGFR2 Enz
Reported metric: IC50 (nM)

Would you please look over these solved cases?
{"Chem smiles": "Cc1c(-c2cc(O[C@@H](CO)c3ccc(F)cn3)c3c(C#N)cnn3c2)cnn1[C@H]1CC[C@H](O)CC1", "IC50 [nM]": 105}
{"Chem smiles": "Cc1nn([C@H]2CCCNC2)c(C)c1-c1cc(O[C@H](C)c2ncccc2F)c2c(C#N)cnn2c1", "IC50 [nM]": 1.4}
{"Chem smiles": "Cc1c(-c2cc(O[C@H](C)c3ccc(Cl)cn3)c3c(C#N)cnn3c2)cnn1[C@H]1CCCNC1", "IC50 [nM]": 12.5}

[I] Cc1c(-c2cc(O[C@H](C)c3ccc(F)cn3)c3c(C#N)cnn3c2)cnn1[C@H]1CCCC[C@@H]1O
[II] Cc1c(-c2cc(O[C@H](C)c3ccc(F)cn3)c3c(C#N)cnn3c2)cnn1C1CCN(C(=O)CO)CC1
[III] Cc1c(-c2cc(O[C@H](c3ccc(F)cn3)C(F)(F)F)c3c(C#N)cnn3c2)cnn1[C@H]1CC[C@H](O)CC1
[IV] C[C@@H](Oc1cc(-c2cnn(C3CCNCC3)c2)cn2ncc(C#N)c12)c1ccccn1
In: Task field, ranking: reported IC50, descending order. Labels, requested order.
Out: III, II, I, IV

[I] Cc1c(-c2cc(O[C@H](C)c3ccc(F)cn3)c3c(C#N)cnn3c2)cnn1[C@@H]1CCC[C@H](O)C1
[II] C[C@@H](Oc1cc(-c2nnn(C)c2N)cn2ncc(C#N)c12)c1ccc(F)cn1
[III] Cc1c(-c2cc(O[C@H](C)c3ccc(F)cn3)c3c(C#N)cnn3c2)cnn1[C@H]1CCC[C@@H](O)C1
In: Form: Sort by [IC50] Order [ ascending ] Labels, requested order.
Out: I, III, II

---

- Test target: FGFR2 V564F (Homo sapiens, UniProt P21802, V564F)
- Construct: biochemical assays using purified intracellular domains of the respective isoforms
- Sequence (P21802 399-821 V564F limits assumed): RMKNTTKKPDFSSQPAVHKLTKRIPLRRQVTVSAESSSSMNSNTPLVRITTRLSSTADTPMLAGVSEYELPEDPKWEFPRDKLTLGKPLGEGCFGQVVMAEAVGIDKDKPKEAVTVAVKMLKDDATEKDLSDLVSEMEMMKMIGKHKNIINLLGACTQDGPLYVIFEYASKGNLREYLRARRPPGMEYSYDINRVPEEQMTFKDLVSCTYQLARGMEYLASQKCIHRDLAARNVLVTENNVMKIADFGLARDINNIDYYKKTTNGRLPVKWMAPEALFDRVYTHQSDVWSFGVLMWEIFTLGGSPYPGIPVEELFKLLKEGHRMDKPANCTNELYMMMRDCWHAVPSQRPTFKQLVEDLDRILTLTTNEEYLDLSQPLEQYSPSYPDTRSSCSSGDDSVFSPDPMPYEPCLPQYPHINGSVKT
- Assay info: FGFR mutant enzyme assay (HTRF KinEASE-TK)
- Test parameters: ATP 1.5 uM
Reported metric: IC50 (nM)

{"Chem smiles": "Cc1c(-c2cc(O[C@H](C)c3ccc(F)cn3)c3c(C#N)cnn3c2)cnn1C1CCN(C(=O)[C@@H](N)C(C)C)CC1", "Test target": "FGFR2 V564F (Homo sapiens, UniProt P21802, V564F)", "Measurement units": "nM", "Observed measurement": 1}
{"Chem smiles": "Cc1c(-c2cc(O[C@H](C)c3ccc(F)cn3)c3c(C#N)cnn3c2)cnn1[C@H]1CCCN(C(=O)[C@@H](C)O)C1", "Test target": "FGFR2 V564F (Homo sapiens, UniProt P21802, V564F)", "Measurement units": "nM", "Observed measurement": 1}

[a] Cc1c(-c2cc(O[C@H](C)c3ccc(F)cn3)c3c(C#N)cnn3c2)cnn1C1CCN(C(=O)CO)CC1
[b] Cc1c(-c2cc(O[C@@H](C)c3ccc(F)cn3)c3c(C#N)cnn3c2)cnn1[C@H]1CC[C@H](O)CC1
In: Pick one: a or b . Which one has the lower reported IC50? Answer by stating the label of the chosen item.
Out: a

[A] Cc1c(-c2cc(O[C@H](C)c3ccc(F)cn3)c3c(C#N)cnn3c2)cnn1C1CCS(=O)(=O)CC1
[B] C[C@@H](Oc1cc(-c2ccc(N3CC[C@@H](O)[C@H](O)C3)nc2)cn2ncc(C#N)c12)c1ccc(F)cn1
[C] Cc1c(-c2cc(O[C@H](C)c3ccc(F)cn3)c3c(C#N)cnn3c2)cnn1[C@H]1CC[C@@H](O)CC1
In: Task field, ranking: reported IC50, descending order. Labels, requested order.
Out: A, C, B
(A: 2 nM, C: 1 nM, B: 0.6 nM)
